- system-name: Ich-2 (Caspase-4) (Homo sapiens)
- Sequence (P49662 81-270 limits assumed): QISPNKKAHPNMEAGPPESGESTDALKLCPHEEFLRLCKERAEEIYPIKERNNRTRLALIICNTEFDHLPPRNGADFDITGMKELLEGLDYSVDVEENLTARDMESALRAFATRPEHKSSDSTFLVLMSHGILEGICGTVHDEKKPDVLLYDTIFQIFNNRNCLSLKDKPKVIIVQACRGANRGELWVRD
- Sequence (P49662 290-377 limits assumed): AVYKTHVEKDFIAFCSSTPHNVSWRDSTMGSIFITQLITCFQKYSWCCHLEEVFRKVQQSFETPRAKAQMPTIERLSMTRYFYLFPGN
measured-metric: pIC50
The scale used: pIC50 is minus the common logarithm of the concentration in molar units.

O=C[C@H](CC(=O)O)NS(=O)(=O)c1ccccc1Cc1ccccc1 [Example 3]: 4.15
CC(C)c1cccc(Oc2ccccc2S(=O)(=O)N[C@H](C=O)CC(=O)O)c1 [Example 8]: 5.21
O=CC(CC(=O)O)NS(=O)(=O)c1ccccc1Oc1ccc2c(c1)CCCC2 (stereo not drawn) [Example 16]: 4.38
O=CC(CC(=O)O)NS(=O)(=O)c1ccccc1Oc1ccccc1 (stereo not drawn) [Example 4]: 4.28
CCc1ccccc1Oc1ccccc1S(=O)(=O)NC(C=O)CC(=O)O (stereo not drawn) [Example 18]: 4.06
CCC(C)c1ccc(Oc2ccccc2S(=O)(=O)NC(C=O)CC(=O)O)cc1 (stereo not drawn) [Example 19]: 5.40
Cc1ccc(Oc2ccccc2)c(S(=O)(=O)NC(C=O)CC(=O)O)c1 (stereo not drawn) [Example 44]: 3.70
O=CC(CC(=O)O)NS(=O)(=O)c1ccccc1[N+](=O)[O-] (stereo not drawn) [Example 46]: 3.28
Cc1cccc(-c2ccccc2S(=O)(=O)NC(C=O)CC(=O)O)c1 (stereo not drawn) [Example 35]: 3.47
Cc1cccc(S(=O)(=O)NC(C=O)CC(=O)O)c1Oc1ccccc1 (stereo not drawn) [Example 38]: 4.12

Challenge: Note down pIC50 recorded for O=CC(CC(=O)O)NS(=O)(=O)c1ccccc1Oc1ccc2ccccc2c1Cl (stereo not drawn) [Example 15]
Response given: 4.66

Challenge: Note down pIC50 recorded for Cc1cccc(Oc2ccccc2S(=O)(=O)N[C@H](C=O)CC(=O)O)c1 [Example 7]
Response given: 4.48

Challenge: Note down pIC50 recorded for Cc1cc(Oc2ccccc2S(=O)(=O)NC(C=O)CC(=O)O)cc(C)c1C (stereo not drawn) [Example 26]
Response given: 4.64

Challenge: Note down pIC50 recorded for O=C[C@H](CC(=O)O)NS(=O)(=O)c1ccccc1 [Example 2]
Response given: 3.59

Challenge: Note down pIC50 recorded for O=CC(CC(=O)O)NS(=O)(=O)c1ccccc1Sc1ccccc1 (stereo not drawn) [Example 39]
Response given: 4.60

* * *

Listing: pIC50 of selected compounds
- system-name: ICE (Homo sapiens, UniProt P29466)
- Sequence (P29466 120-297 limits assumed): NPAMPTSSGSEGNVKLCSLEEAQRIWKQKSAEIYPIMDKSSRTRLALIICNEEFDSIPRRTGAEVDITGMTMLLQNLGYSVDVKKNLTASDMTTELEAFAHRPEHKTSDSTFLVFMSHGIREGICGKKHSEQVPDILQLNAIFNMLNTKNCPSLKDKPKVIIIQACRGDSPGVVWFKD
- Sequence (P29466 317-404 limits assumed): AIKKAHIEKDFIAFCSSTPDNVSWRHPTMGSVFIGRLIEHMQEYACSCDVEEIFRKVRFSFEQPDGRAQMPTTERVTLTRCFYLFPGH
- experimental-details: ICE Colorimetric Dose-Response (IC50) Assay
- Assay type: biochemical
- experimental-setup: 24 nM ICE, 60 min preincubation, 50 μM Ac-Tyr-Val-Ala-Asp-pNA, pH 7.5, 25° C
The scale used: pIC50 is minus the common logarithm of the concentration in molar units.

Cc1ccc(-c2ccccc2S(=O)(=O)NC(C=O)CC(=O)O)cc1 (stereo not drawn): 4.18
O=CC(CC(=O)O)NS(=O)(=O)c1ccccc1Oc1ccc2ccccc2c1 (stereo not drawn): 5.46
O=CC(CC(=O)O)NS(=O)(=O)c1ccccc1OCc1ccccc1 (stereo not drawn): 4.96
Cc1cccc(S(=O)(=O)NC(C=O)CC(=O)O)c1Oc1ccc(C(C)C)cc1 (stereo not drawn): 4.92

Challenge: With ICE (Homo sapiens, UniProt P29466) as the test system, provide measured pIC50 for this compound: O=CC(CC(=O)O)NS(=O)(=O)c1ccccc1Oc1ccc2c(c1)CCCC2 (stereo not drawn)
Response given: 5.24

Challenge: With ICE (Homo sapiens, UniProt P29466) as the test system, provide measured pIC50 for this compound: O=CC(CC(=O)O)NS(=O)(=O)c1ccccc1Oc1ccc2ccccc2c1Cl (stereo not drawn)
Response given: 5.29

Challenge: With ICE (Homo sapiens, UniProt P29466) as the test system, provide measured pIC50 for this compound: O=CC(CC(=O)O)NS(=O)(=O)c1ccccc1Oc1ccc(-c2ccccc2)cc1 (stereo not drawn)
Response given: 5.36

Challenge: With ICE (Homo sapiens, UniProt P29466) as the test system, provide measured pIC50 for this compound: O=CC(CC(=O)O)NS(=O)(=O)c1ccccc1OCCc1ccccc1 (stereo not drawn)
Response given: 5.04

Challenge: With ICE (Homo sapiens, UniProt P29466) as the test system, provide measured pIC50 for this compound: O=CC(CC(=O)O)NS(=O)(=O)c1cccc2ccccc12 (stereo not drawn)
Response given: 3.96
